# measurement-notes: Half life in Sprague-Dawley rat at 1 mg/kg, iv or 2 mg/kg, po
# Format: ADME, organism-based
# experimental-context: in vivo
# Lookup of reported half-life keyed by entry
endpoint: half-life (min)

C[C@@H]1C(=O)N(CC(F)(F)F)CCCN1C(=O)C[C@H](N)Cc1cc(F)c(F)cc1F | 102
C[C@@H]1C(=O)N2CCC[C@@H]2CCN1C(=O)C[C@H](N)Cc1cc(F)c(F)cc1F | 84
C[C@@H]1C(=O)N(C2CC2)CCCN1C(=O)C[C@H](N)Cc1cc(F)ccc1F | 96
N[C@@H](CC(=O)N1CCCNC(=O)C1CC(F)(F)F)Cc1cc(F)c(F)cc1F (stereo not given in full) | 120
C[C@@H]1C(=O)N(C2CC2)CCCN1C(=O)C[C@H](N)Cc1cc(F)c(F)cc1F | 258

---

# System: Canis familiaris
# measurement-notes: Half life in dog at 1 mg/kg, iv or 2 mg/kg, po
# Format: ADME, organism-based, Canis lupus familiaris
# experimental-context: in vivo
endpoint: t1/2 (h)

C[C@@H]1CCN(C(=O)C[C@H](N)Cc2cc(F)c(F)cc2F)[C@H](C)C(=O)N1 | 7.2

---

pIC50: −log10 of the molar value.
So I've got pIC50 readings for Dipeptidyl peptidase 8 (Homo sapiens), take a look.
endpoint: pIC50

CC1CCNC(=O)CN1C(=O)C[C@H](N)Cc1cc(F)c(F)cc1F (stereo in doubt; 13b) | < 4.00
CC1CCNC(=O)CN1C(=O)C[C@H](N)Cc1cc(F)c(F)cc1F (stereo in doubt; 13a) | < 4.00
C[C@@H]1C(=O)N(CC(=O)O)CCCN1C(=O)C[C@H](N)Cc1cc(F)ccc1F | < 4.00

---

# measurement-notes: Plasma clearance in dog at 1 mg/kg, iv or 2 mg/kg, po
# Format: ADME, organism-based, Canis lupus familiaris
# Lookup of reported clearance keyed by entry
endpoint: clearance (mL/min/kg)

C[C@@H]1CCN(C(=O)C[C@H](N)Cc2cc(F)c(F)cc2F)[C@H](C)C(=O)N1 | 8.5
C[C@H]1CNC(=O)[C@@H](C)N(C(=O)C[C@H](N)Cc2cc(F)c(F)cc2F)C1 | 8.1

---

# measurement-notes: Bioavailability in Sprague-Dawley rat at 2 mg/kg, po
# Assay type: ADME, organism-based
# experimental-context: in vivo
# Lookup of reported bioavailability keyed by entry
endpoint: bioavailability (%)

CCN1CCCN(C(=O)C[C@H](N)Cc2cc(F)ccc2F)[C@H](C)C1=O | 7.4
C[C@@H]1CCN(C(=O)C[C@H](N)Cc2cc(F)c(F)cc2F)[C@H](C)C(=O)N1 | 64
C[C@@H]1C(=O)N(C)CCCN1C(=O)C[C@H](N)Cc1cc(F)c(F)cc1F | 29
C[C@@H]1CCN(C(=O)C[C@H](N)Cc2cc(F)c(F)cc2F)[C@H](Cc2ccccn2)C(=O)N1 | 8.1
C[C@@H]1C(=O)N2CCC[C@@H]2CCN1C(=O)C[C@H](N)Cc1cc(F)c(F)cc1F | 21

---

# measurement-notes: Cmax in dog at 1 mg/kg, iv or 2 mg/kg, po
# Format: ADME, organism-based, Canis lupus familiaris
# experimental-context: in vivo
# Lookup of reported Cmax keyed by entry
endpoint: Cmax (nM)

C[C@@H]1CCN(C(=O)C[C@H](N)Cc2cc(F)c(F)cc2F)[C@H](C)C(=O)N1 | 1290
C[C@H]1CNC(=O)[C@@H](C)N(C(=O)C[C@H](N)Cc2cc(F)c(F)cc2F)C1 | 1210

---

So I've got IC50 readings for UniProt:Q9UHL4, take a look.
endpoint: IC50

CC1CCNC(=O)CN1C(=O)C[C@H](N)Cc1cc(F)c(F)cc1F (stereo in doubt; 13a) | 44 µM
CC1CCNC(=O)CN1C(=O)C[C@H](N)Cc1cc(F)c(F)cc1F (stereo in doubt; 13b) | > 100 µM
C[C@@H]1C(=O)N(CC(=O)O)CCCN1C(=O)C[C@H](N)Cc1cc(F)ccc1F | > 100 µM
COC(=O)CN1CCCN(C(=O)C[C@H](N)Cc2cc(F)ccc2F)[C@H](C)C1=O | > 100 µM
CC1C(=O)NCCCN1C(=O)C[C@H](N)Cc1cc(F)ccc1F (stereo partly specified) | > 100 µM
N[C@@H](CC(=O)N1CCCNC(=O)C1)Cc1cc(F)c(F)cc1F | > 100 µM

---

# measurement-notes: Bioavailability in monkey at 2 mg/kg, po
# Assay type: ADME, organism-based, Macaca mulatta
# experimental-context: rhesus monkey, in vivo
endpoint: bioavailability

C[C@@H]1CCN(C(=O)C[C@H](N)Cc2cc(F)c(F)cc2F)[C@H](C)C(=O)N1 | 71%
C[C@H]1CNC(=O)[C@@H](C)N(C(=O)C[C@H](N)Cc2cc(F)c(F)cc2F)C1 | 59%

---

# Lookup of reported bioavailability keyed by entry
# measurement-notes: Bioavailability in Sprague-Dawley rat at 2 mg/kg, po
# Type: ADME, organism-based
# experimental-context: in vivo
endpoint: bioavailability (%)

C[C@@H]1C(=O)N(C2CC2)CCCN1C(=O)C[C@H](N)Cc1cc(F)c(F)cc1F | 45
N[C@@H](CC(=O)N1CCCNC(=O)C1CC(F)(F)F)Cc1cc(F)c(F)cc1F (stereo not given in full) | 36
C[C@@H]1C(=O)N(CC(F)(F)F)CCCN1C(=O)C[C@H](N)Cc1cc(F)c(F)cc1F | 23
C[C@@H]1C(=O)N(C2CC2)CCCN1C(=O)C[C@H](N)Cc1cc(F)ccc1F | 19
C[C@H]1CNC(=O)[C@@H](C)N(C(=O)C[C@H](N)Cc2cc(F)c(F)cc2F)C1 | 49

---

# measurement-notes: Bioavailability in dog at 2 mg/kg, po
# Assay type: ADME, organism-based, Canis lupus familiaris
# experimental-context: in vivo
# Lookup of reported bioavailability keyed by entry
endpoint: bioavailability (%)

C[C@H]1CNC(=O)[C@@H](C)N(C(=O)C[C@H](N)Cc2cc(F)c(F)cc2F)C1 | 77
C[C@@H]1CCN(C(=O)C[C@H](N)Cc2cc(F)c(F)cc2F)[C@H](C)C(=O)N1 | 88

---

# measurement-notes: Half life in dog at 1 mg/kg, iv or 2 mg/kg, po
# Assay type: ADME, organism-based, Canis lupus familiaris
# experimental-context: in vivo
endpoint: half-life (min)

C[C@H]1CNC(=O)[C@@H](C)N(C(=O)C[C@H](N)Cc2cc(F)c(F)cc2F)C1 | 486

---

# target-or-system: Dipeptidyl peptidase 4 (Homo sapiens, UniProt P27487)
# Sequence (P27487 whole entry): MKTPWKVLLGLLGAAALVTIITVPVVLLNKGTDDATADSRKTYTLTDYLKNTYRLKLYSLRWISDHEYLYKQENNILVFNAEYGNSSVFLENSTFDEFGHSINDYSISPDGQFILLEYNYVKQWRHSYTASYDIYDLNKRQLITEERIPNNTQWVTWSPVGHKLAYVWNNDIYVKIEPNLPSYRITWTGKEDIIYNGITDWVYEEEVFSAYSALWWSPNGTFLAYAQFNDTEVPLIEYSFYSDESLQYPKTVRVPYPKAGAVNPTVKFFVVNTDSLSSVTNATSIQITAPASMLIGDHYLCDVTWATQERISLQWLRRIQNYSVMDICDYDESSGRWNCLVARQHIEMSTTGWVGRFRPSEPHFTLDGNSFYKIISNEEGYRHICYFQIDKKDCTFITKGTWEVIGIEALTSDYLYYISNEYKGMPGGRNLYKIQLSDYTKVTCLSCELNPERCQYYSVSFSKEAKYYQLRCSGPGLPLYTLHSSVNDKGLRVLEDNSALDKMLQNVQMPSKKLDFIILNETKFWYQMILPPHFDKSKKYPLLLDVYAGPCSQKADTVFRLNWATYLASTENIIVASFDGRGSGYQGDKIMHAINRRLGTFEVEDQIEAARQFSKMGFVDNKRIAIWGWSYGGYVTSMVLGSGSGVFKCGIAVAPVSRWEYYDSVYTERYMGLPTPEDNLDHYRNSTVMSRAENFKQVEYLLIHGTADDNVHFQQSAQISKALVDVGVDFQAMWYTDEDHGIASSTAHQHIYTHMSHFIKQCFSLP
endpoint: IC50 (nM)

CC1CCNC(=O)CN1C(=O)C[C@H](N)Cc1cc(F)c(F)cc1F (stereo in doubt; 13b) | 1050
CC1CCNC(=O)CN1C(=O)C[C@H](N)Cc1cc(F)c(F)cc1F (stereo in doubt; 13a) | 765
C[C@@H]1C(=O)N(CC(=O)O)CCCN1C(=O)C[C@H](N)Cc1cc(F)ccc1F | 69.9
COC(=O)CN1CCCN(C(=O)C[C@H](N)Cc2cc(F)ccc2F)[C@H](C)C1=O | 11.6

---

# measurement-notes: Cmax in Sprague-Dawley rat at 1 mg/kg, iv or 2 mg/kg, po
# Type: ADME, organism-based
# experimental-context: in vivo
endpoint: Cmax (nM)

C[C@H]1CNC(=O)[C@@H](C)N(C(=O)C[C@H](N)Cc2cc(F)c(F)cc2F)C1 | 140
N[C@@H](CC(=O)N1CCCNC(=O)C1CC(F)(F)F)Cc1cc(F)c(F)cc1F (stereo not given in full) | 90
C[C@@H]1C(=O)N(C)CCCN1C(=O)C[C@H](N)Cc1cc(F)c(F)cc1F | 130
C[C@@H]1CCN(C(=O)C[C@H](N)Cc2cc(F)c(F)cc2F)[C@H](C)C(=O)N1 | 170
C[C@@H]1C(=O)N2CCC[C@@H]2CCN1C(=O)C[C@H](N)Cc1cc(F)c(F)cc1F | 40
